Answer each item with its documented Paw weight increase.
- Tested on: Mus musculus
- Experiment: Antiinflammatory activity, administered ip at 150 uM/kg dose was determined against carrageenan-induced mice paw edema model
- Type: functional
- Study Conditions: at 150 µmol/kg
One number for each entry, in %.

For every item in the list below, what is its measured Paw weight increase?
1. CCOC(=O)[C@H](CS)NC(=O)C(C)c1cccc(C(=O)c2ccccc2)c1 (some centres undefined)
2. CCOC(=O)[C@H](CS)NC(=O)C(C)c1ccc(CC(C)C)cc1 (some centres undefined)
3. CCOC(=O)[C@@H](N)CS.COc1ccc2c(c1)c(CC(=O)O)c(C)n2C(=O)c1ccc(Cl)cc1
4. CCOC(=O)[C@@H](N)CS.Cc1c(Cl)cccc1Nc1ccccc1C(=O)O
5. COc1ccc2cc([C@H](C)C(=O)O)ccc2c1 [NAPROXEN]
6. CC(C(=O)O)c1cccc(C(=O)c2ccccc2)c1 (centres undefined) [KETOPROFEN]

OUT:
1: 48; 2: 19.1; 3: 25.8; 4: 25.5; 5: 50.4; 6: 35.9

Field: Paw weight increase. Fill in for each record below.
1. CCOC(=O)[C@H](CS)NC(=O)Cc1ccccc1Nc1c(Cl)cccc1Cl
2. O=C([O-])Cc1ccccc1Nc1c(Cl)cccc1Cl.[Na+] [DICLOFENAC SODIUM]
3. CCOC(=O)[C@H](CS)NC(=O)Cc1c(C)n(C(=O)c2ccc(Cl)cc2)c2ccc(OC)cc12
4. CCOC(=O)[C@@H](N)CS.COc1ccc2cc(C(C)C(=O)O)ccc2c1 (centres undefined)

OUT:
[11.8, 24.5, 14.1, 30.1]

Quick batch: Paw weight increase for everything below.
1. O=C(O)c1ccccc1Nc1cccc(C(F)(F)F)c1 [FLUFENAMIC ACID]
2. CC(C)Cc1ccc(C(C)C(=O)O)cc1 (centres undefined) [IBUPROFEN]
3. CCOC(=O)[C@@H](N)CS.O=C([O-])Cc1ccccc1Nc1c(Cl)cccc1Cl.[Na+]
4. CCOC(=O)[C@@H](N)CS.O=C(O)c1ccccc1Nc1cccc(C(F)(F)F)c1

OUT:
1: 55.4; 2: 31.7; 3: 28.2; 4: 61.9

Hey, can you go through the list below and give me Paw weight increase for every item?
1. CCOC(=O)[C@H](CS)NC(=O)C(C)c1ccc2cc(OC)ccc2c1 (some centres undefined)
2. CCOC(=O)[C@@H](N)CS
3. Cc1c(Cl)cccc1Nc1ccccc1C(=O)O [TOLFENAMIC ACID]
4. CC(C(=O)O)c1cccc(C(=O)c2ccccc2)c1.CCOC(=O)[C@@H](N)CS (centres undefined)
5. COc1ccc2c(c1)c(CC(=O)O)c(C)n2C(=O)c1ccc(Cl)cc1 [INDOMETHACIN]

OUT:
[35.6, 29.2, 27.6, 41.6, 22.5]
